Data credit: the supplement of paper PMC10065799

Target: FGFR1 (UniProt P11362)
Sequence (P11362 whole entry, looked up): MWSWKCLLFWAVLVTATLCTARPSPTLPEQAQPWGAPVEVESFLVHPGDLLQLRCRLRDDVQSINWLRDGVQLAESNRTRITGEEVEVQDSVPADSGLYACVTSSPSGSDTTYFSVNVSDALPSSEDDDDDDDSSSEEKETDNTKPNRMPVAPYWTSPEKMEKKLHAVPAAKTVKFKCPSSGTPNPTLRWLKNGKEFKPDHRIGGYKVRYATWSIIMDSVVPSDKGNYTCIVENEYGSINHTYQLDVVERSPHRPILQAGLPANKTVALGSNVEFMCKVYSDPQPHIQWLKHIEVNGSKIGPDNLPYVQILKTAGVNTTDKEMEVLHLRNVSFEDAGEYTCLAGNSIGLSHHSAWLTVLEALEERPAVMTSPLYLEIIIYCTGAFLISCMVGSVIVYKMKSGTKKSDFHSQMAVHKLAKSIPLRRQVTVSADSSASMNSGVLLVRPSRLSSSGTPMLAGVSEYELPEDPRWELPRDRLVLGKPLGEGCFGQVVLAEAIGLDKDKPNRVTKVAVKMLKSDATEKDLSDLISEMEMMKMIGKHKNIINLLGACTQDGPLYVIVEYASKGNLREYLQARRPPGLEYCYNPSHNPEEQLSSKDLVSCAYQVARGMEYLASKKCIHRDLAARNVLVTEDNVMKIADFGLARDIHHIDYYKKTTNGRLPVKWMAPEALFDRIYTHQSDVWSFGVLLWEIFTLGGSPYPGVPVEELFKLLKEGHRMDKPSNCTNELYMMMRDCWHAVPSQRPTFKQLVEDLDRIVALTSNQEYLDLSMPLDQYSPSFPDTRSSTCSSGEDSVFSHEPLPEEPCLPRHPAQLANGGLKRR
Experiment: phosphorylation enrichment, bacterial display (enrichment ratio); higher = better substrate or ligand; peptides without Tyr show the background
measure name: phosphorylation enrichment
Keep it simple and answer with nothing but the number.

chain="FSAPNYCYRCG [PPP2CA_Y265]" assayed_system="FGFR1 (UniProt P11362)" measure_name="phosphorylation enrichment" recorded_number=0.446
chain="YGGLRYGYGVL [KRTAP20-2_Y13]" assayed_system="FGFR1 (UniProt P11362)" measure_name="phosphorylation enrichment" recorded_number=0.559
chain="RFWPRYVKVGS [NOG_Y172]" assayed_system="FGFR1 (UniProt P11362)" measure_name="phosphorylation enrichment" recorded_number=0.487
chain="MARDIYRASFF [ALK_Y1278_YF]" assayed_system="FGFR1 (UniProt P11362)" measure_name="phosphorylation enrichment" recorded_number=0.435
chain="KNDSNYVVKGN [KIT_Y823]" assayed_system="FGFR1 (UniProt P11362)" measure_name="phosphorylation enrichment" recorded_number=0.55

Sample GLAELYEYQKK [CKAP5_Y1854_K1857Q] ; phosphorylation enrichment observed: 0.61

Sample IRKDLYANNVL [ACTA2_Y296] ; phosphorylation enrichment observed: 0.421

---

The entries below come with measured phosphorylation enrichment values attached.
Target: Hck (UniProt P08631)
Sequence (P08631 whole entry, looked up): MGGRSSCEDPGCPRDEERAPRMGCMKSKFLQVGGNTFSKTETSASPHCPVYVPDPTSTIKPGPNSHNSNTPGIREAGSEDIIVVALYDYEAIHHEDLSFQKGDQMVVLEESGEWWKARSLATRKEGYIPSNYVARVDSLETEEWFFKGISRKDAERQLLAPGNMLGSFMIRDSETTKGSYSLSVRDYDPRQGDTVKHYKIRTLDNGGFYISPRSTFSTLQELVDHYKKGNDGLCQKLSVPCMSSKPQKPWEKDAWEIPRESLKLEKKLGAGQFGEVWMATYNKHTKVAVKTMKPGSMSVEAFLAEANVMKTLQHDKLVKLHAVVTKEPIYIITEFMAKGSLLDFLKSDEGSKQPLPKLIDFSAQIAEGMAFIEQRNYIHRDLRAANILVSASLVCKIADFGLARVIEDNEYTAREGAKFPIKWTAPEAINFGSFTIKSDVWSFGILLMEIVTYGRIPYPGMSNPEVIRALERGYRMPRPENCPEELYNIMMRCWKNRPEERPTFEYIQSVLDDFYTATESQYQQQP
Assay: phosphorylation enrichment, bacterial display (enrichment ratio); higher = better substrate or ligand; peptides without Tyr show the background
Keep it simple and answer with nothing but the number.

Guide cases for phosphorylation enrichment, answers given:
chain="RTLSEYARPHV [RERE_Y1259]" recorded_number=0.683
chain="YRDALYKFMVD [PHEX_Y250]" recorded_number=0.712

Sample QRKPSYNQLPS [BRCA2_Y71_A75P] ; phosphorylation enrichment observed: 0.691

---

Molecular target: c-Src SH2
Test: SH2 binding enrichment of the phosphorylated peptide, bacterial display (enrichment ratio); higher = better substrate or ligand; peptides without Tyr show the background
measure name: SH2 binding enrichment
Keep it simple and answer with nothing but the number.

chain="TVLEPYTDPFF [ZC3H18_Y367_A368T_YF]" assayed_system="c-Src SH2" recorded_number=1.98

Sample AKLNIYKRKVE [VWA3B_Y918] ; SH2 binding enrichment observed: 0.517

Sample TLMNAYSSRCH [KIF11_Y231_S235C] ; SH2 binding enrichment observed: 0.581

Sample RSAGKDDVFLI [MECP2_Y120_Y120D_YF] ; SH2 binding enrichment observed: 0.481

Sample HEEDNYIEMIP [NWD2_Y566_L569M] ; SH2 binding enrichment observed: 0.467

Sample VKPENYWRLDI [VHL_Y175_R176W] ; SH2 binding enrichment observed: 0.586

Sample NGEDPYAGSTD [XRCC1_Y515] ; SH2 binding enrichment observed: 0.547

---

Test system: AncSZ
Experiment: phosphorylation enrichment, bacterial display (enrichment ratio); higher = better substrate or ligand; peptides without Tyr show the background
Bucketed by reported phosphorylation enrichment, buckets being LOW: < 0.8; MID: ≥ 0.8 and < 1; HIGH: ≥ 1

These recorded examples may help you get a feel for the data.
chain="KGPNVYKKTVN [REV3L_Y1156]" qualitative_label=LOW
chain="AKGMKYVASKK [MET_Y1194_L1195V]" qualitative_label=LOW

GET /class?item= KANEYYPVVII [ADAMTS18_Y765_L769I]
HIGH

GET /class?item= TTANRYLKVSD [MYOM2_Y871]
LOW

GET /class?item= QEGPEYWDQNT [HLA-A_Y83_E87N]
HIGH

GET /class?item= GHMFAYDWISI [BEST1_Y227_L224M_YF]
HIGH

GET /class?item= MSNFACVKREV [SCN1A_Y1694_Y1694C]
LOW

GET /class?item= LNPDGYEKAYE [CPXM2_Y427]
HIGH

GET /class?item= NWGKKYPTCNS [PTPRZ1_Y53]
LOW

GET /class?item= TSKLNYLDPRI [TOP1_Y723]
LOW

GET /class?item= LSSEMCVKSFT [F5_Y2149_Y2149C_YF]
HIGH

GET /class?item= ATDLAYYLVRE [ASL_Y375_K380E]
HIGH

GET /class?item= MFNPMYALFRT [HUWE1_Y4078]
MID

GET /class?item= IEDNKYTAREG [HCK_Y411_E410K]
MID

GET /class?item= SAVVPYEPPEV [TP53_Y220_V216A]
HIGH

GET /class?item= IGNGYYFRVFS [MYBPC3_Y1136]
HIGH

GET /class?item= HFGCVYYGTLL [MET_Y1093_H1094Y]
HIGH

GET /class?item= WKEREYEVVRD [CPS1_Y634_I632R]
HIGH

GET /class?item= AKLDIYKRKVE [VWA3B_Y918_N916D]
LOW

GET /class?item= VKMLLYTEVTR [GDI1_Y93]
HIGH

GET /class?item= YPPDGYSRHCE [CTNND1_Y213_Y217C]
MID

GET /class?item= FHNSEYGELSE [FLT4_Y1337_Y1333H]
HIGH

GET /class?item= LQLLGDRPVFS [CHST6_Y358_Y358D_YF]
LOW

GET /class?item= LTQRTYMLENA [GPAA1_Y49_S51L]
MID

GET /class?item= GGGGGYNRSSG [FUS_Y232]
LOW

GET /class?item= EIIPFYGMSSY [FNDC3B_Y175_T179S]
MID

---

The entries below come with measured SH2 binding enrichment values attached.
Biological target: Grb2 SH2 (UniProt P62993)
Sequence (P62993 whole entry, looked up): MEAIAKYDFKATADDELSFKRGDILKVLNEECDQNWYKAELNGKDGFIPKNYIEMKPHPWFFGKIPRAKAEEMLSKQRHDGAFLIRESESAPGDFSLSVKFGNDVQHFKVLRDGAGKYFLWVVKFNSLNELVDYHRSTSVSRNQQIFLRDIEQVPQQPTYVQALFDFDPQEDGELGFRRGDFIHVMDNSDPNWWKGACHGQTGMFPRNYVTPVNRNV
Assay: SH2 binding enrichment of the phosphorylated peptide, bacterial display (enrichment ratio); higher = better substrate or ligand; peptides without Tyr show the background
Keep it simple and answer with nothing but the number.

Guide cases for SH2 binding enrichment, answers given:
chain="EEDPEYKKKFR [FAM161A_Y278]" assayed_system="Grb2 SH2 (UniProt P62993)" recorded_number=1.14
chain="VATRWYRSPEP [CDKL5_Y177_L182P]" assayed_system="Grb2 SH2 (UniProt P62993)" recorded_number=0.796
chain="FDNSVYQKTTE [LDLR_Y828_P826S]" assayed_system="Grb2 SH2 (UniProt P62993)" recorded_number=0.808
chain="RSAGKDDVFLI [MECP2_Y120_Y120D_YF]" assayed_system="Grb2 SH2 (UniProt P62993)" recorded_number=1.01
chain="PMWHPYKVDVT [TP53TG5_Y255]" assayed_system="Grb2 SH2 (UniProt P62993)" recorded_number=0.525

Read the next record carefully.
Sample MGGSVYFSYPD [HIKESHI_Y55] ; SH2 binding enrichment observed: 0.978

---

Target: Fes (UniProt P07332)
Sequence (P07332 whole entry, looked up): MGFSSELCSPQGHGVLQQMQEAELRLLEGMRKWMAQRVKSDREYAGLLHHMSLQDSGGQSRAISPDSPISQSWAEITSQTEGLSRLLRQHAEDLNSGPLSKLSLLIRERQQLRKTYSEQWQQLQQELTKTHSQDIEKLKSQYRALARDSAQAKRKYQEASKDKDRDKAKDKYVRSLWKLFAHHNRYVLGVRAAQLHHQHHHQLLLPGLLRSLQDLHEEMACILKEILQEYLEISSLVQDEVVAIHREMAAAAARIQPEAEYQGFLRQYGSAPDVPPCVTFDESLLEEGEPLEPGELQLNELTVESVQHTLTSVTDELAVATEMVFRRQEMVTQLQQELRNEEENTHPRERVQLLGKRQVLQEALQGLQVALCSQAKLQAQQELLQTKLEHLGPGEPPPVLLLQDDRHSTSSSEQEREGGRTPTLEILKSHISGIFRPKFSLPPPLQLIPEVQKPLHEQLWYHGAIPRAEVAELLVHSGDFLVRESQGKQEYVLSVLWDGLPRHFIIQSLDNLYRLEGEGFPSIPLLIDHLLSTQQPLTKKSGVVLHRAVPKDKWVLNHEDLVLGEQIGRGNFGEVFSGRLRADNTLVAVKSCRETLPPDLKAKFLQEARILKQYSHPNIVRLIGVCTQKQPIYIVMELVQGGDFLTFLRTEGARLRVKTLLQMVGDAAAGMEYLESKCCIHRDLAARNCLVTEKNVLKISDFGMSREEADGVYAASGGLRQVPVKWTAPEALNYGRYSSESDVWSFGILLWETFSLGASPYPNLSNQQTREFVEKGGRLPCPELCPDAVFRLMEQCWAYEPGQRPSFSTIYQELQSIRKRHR
Assay: phosphorylation enrichment, bacterial display (enrichment ratio); higher = better substrate or ligand; peptides without Tyr show the background
The entries below come with measured phosphorylation enrichment values attached.
Keep it simple and answer with nothing but the number.

Guide cases for phosphorylation enrichment, answers given:
chain="NFCPGYNNFFN [USH2A_Y467_R464C_YF]" recorded_number=0.79
chain="VKYGAYINDFK [GLB1_Y488_N484K]" recorded_number=0.791
chain="DHCNQYEQQKM [CHD7_Y75_Y72C]" recorded_number=0.823
chain="EYGSGYPNDPK [RNASEH2A_Y210_D205E]" recorded_number=0.794

Read the next record carefully.
Sample KDQGGYTMHQD [MAPT_Y29] ; phosphorylation enrichment observed: 0.793

---

Molecular target: MERTK (UniProt Q12866)
Sequence (Q12866 whole entry, looked up): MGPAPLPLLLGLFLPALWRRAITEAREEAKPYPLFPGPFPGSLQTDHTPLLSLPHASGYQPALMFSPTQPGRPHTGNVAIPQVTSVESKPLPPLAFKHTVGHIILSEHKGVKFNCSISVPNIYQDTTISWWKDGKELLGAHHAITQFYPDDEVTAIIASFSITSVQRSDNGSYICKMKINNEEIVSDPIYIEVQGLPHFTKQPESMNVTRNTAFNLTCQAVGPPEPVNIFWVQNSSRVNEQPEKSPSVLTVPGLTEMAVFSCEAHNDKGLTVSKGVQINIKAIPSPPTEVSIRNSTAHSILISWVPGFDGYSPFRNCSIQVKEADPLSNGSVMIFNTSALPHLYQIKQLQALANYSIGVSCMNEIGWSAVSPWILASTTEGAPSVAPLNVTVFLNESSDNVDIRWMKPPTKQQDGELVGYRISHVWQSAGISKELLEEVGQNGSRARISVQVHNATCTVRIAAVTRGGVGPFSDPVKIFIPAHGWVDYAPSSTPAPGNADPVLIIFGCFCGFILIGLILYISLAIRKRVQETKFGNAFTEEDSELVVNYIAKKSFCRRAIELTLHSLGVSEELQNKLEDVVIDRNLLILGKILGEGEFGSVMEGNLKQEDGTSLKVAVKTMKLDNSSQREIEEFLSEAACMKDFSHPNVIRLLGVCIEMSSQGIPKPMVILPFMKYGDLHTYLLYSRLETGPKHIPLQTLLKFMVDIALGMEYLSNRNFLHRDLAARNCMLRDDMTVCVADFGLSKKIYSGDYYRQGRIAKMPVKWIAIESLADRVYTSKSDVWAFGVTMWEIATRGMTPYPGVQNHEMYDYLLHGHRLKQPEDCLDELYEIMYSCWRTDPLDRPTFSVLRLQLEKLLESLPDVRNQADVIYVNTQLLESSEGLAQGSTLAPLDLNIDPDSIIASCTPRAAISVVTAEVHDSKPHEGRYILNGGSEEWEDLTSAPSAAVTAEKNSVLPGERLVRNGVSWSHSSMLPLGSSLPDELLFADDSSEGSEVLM
Experiment: phosphorylation enrichment, bacterial display (enrichment ratio); higher = better substrate or ligand; peptides without Tyr show the background
The entries below come with measured phosphorylation enrichment values attached.
Keep it simple and answer with nothing but the number.

chain="EFKKHYGFSLF [ANXA3_Y295_YF]" recorded_number=0.416
chain="KNKNRCKNILP [PTPN11_Y279_Y279C]" recorded_number=0.581

Read the next record carefully.
Sample QMIETYFDFRL [NSMF_Y506] ; phosphorylation enrichment observed: 2.65

---

System: AncSZ
Assay: phosphorylation enrichment, bacterial display (enrichment ratio); higher = better substrate or ligand; peptides without Tyr show the background
The entries below come with measured phosphorylation enrichment values attached.
Keep it simple and answer with nothing but the number.

Guide cases for phosphorylation enrichment, answers given:
chain="GNHVSYYQSDG [CACNA1C_Y1757]" recorded_number=0.774
chain="DVVKDCAFVHM [RBM14_Y114_Y114C]" recorded_number=0.899
chain="LITTLYIGFLD [KCNQ1_Y267_G272D]" recorded_number=2.56

Sample ASPKSYPSQKH [CAP2_Y316_T311A] ; phosphorylation enrichment observed: 0.426

Sample RTLSEYARPHV [RERE_Y1259] ; phosphorylation enrichment observed: 1.14

Sample VLNKGYRMVVN [HINT1_Y94_G89V] ; phosphorylation enrichment observed: 0.557

Sample RALRHYYKLNI [ETV6_Y401] ; phosphorylation enrichment observed: 1.07

Sample RNAAEYLLSSG [ABL1_Y139] ; phosphorylation enrichment observed: 0.765

Sample HLVSEYQQFQD [TUBB3_Y422_D417H_YF] ; phosphorylation enrichment observed: 1.07

Sample LYSNAYLNDLA [ALDH1A1_Y119] ; phosphorylation enrichment observed: 0.831

Sample ETCLAYMEKRI [TEKT1_Y118_R119M] ; phosphorylation enrichment observed: 1.2
